SYSTEM: C52Hg Brazilian variant (Acro) spike protein (SARS-CoV-2, UniProt P0DTC2 16-1213)
EXPERIMENT DESCRIPTION: SPR (Carterra LSA); […]; 1:1 model; […]
Field: Kd. Provide a value for each of the binders that follow.
Supply the numeric figure in nM, leaving out any unit text.

query: For the binder Antibody 1-8 (Fc fusion) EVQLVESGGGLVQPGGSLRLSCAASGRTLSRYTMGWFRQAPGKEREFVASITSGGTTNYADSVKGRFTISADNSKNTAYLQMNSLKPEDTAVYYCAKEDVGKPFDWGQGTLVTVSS , report Kd.
result: 0.321

query: For the binder Antibody 1-10 (Fc fusion) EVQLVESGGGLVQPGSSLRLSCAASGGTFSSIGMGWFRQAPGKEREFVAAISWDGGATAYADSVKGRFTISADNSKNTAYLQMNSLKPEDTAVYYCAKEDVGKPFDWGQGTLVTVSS , report Kd.
result: 127

query: For the binder Antibody 1-16 (Fc fusion) EVQLVESGGGLVQPGGSLRLSCAASGRTYAMGWFRQAPGKERELVAEITAGGSTYYADSVKGRFTISADNSKNTAYLQMNSLKQEDTAVYYCAVDGPFGWGQGTLVTVSS , report Kd.
result: 4.79

query: For the binder Antibody 1-11 (Fc fusion) EVQLVESGGGLVQPGGSLRLSCAASGFTFDDYVMGWFRQAPGKEREFVAVISWTGESTLYADSVKGRFTISADNSKNTAYLQMNSLKPEDTAVYYCAAFDGYSGSDWGQGTLVTVSS , report Kd.
result: 4.67

query: For the binder Antibody 1-1 (Fc fusion) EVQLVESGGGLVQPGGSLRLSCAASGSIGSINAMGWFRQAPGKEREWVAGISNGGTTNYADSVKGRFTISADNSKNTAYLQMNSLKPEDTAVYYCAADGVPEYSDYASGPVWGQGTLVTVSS , report Kd.
result: 0.691

query: For the binder Antibody 1-15 (Fc fusion) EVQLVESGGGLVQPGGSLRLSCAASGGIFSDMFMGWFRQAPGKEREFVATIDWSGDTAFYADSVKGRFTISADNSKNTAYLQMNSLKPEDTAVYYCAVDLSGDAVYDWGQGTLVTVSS , report Kd.
result: 1.04

query: For the binder Antibody 1-7 (Fc fusion) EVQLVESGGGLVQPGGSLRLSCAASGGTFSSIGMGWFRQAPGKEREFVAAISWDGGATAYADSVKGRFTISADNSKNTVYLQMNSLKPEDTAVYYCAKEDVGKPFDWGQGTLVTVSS , report Kd.
result: 0.962
